- Assayed Target: High affinity choline transporter 1 (Homo sapiens, UniProt Q9GZV3)
- Sequence (Q9GZV3 whole entry): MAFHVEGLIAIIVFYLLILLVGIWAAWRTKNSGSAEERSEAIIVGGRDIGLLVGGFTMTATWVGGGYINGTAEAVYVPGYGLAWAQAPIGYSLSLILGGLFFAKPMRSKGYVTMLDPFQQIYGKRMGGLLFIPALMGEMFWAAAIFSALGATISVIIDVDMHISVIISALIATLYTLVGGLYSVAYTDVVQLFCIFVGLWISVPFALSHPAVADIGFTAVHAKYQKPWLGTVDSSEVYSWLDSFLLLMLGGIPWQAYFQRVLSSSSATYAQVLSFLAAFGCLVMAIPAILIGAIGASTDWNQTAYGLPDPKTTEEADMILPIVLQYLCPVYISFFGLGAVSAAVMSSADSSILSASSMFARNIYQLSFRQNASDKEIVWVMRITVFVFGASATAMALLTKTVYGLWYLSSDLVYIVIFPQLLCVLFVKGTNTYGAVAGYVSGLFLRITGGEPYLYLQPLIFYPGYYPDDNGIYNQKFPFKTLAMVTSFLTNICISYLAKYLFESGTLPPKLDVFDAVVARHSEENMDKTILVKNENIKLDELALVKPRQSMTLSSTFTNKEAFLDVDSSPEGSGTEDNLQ
- Test Description: CHT inhibitors, dose response, cell-based, 5-point CRC, membrane potential dye (AID 504840)
- Format: functional
Active and inactive are the calls of the source.
Measured Property: IC50

Molecule: Cn1nc(C(F)(F)F)c(-c2ccccc2)c1NC(=O)c1cccnc1
Assayed Target: High affinity choline transporter 1 (Homo sapiens, UniProt Q9GZV3)
Val: 13.2 µM (active)

Exercise: Given Cc1n[nH]c(C)c1CCCCOc1ccccc1[N+](=O)[O-] , respond with its IC50.
Solution: 12.6 µM (active)

Exercise: Given C=CCN1C(=O)NC(=O)/C(=C(/CC)NC(C)c2ccccc2)C1=O (stereo not given) , respond with its IC50.
Solution: 1.91 µM (active)

Exercise: Given CC(C)(C)C(=O)Oc1cccc(Nc2ncnc3ccccc23)c1 , respond with its IC50.
Solution: 13.8 µM (active)

Exercise: Given CC1=CC2/C=C(\C)CCC(O)C(O)/C=C/C(=O)C23C(=O)NC(CC(C)C)C3C1C (stereo not given) , respond with its IC50.
Solution: 4.38 µM (active)

----------
- Test Description: C. albicans growth with fluconazole, confirmation, fluorescence, retest (AID 2467)
- Type: functional, cell-based
Calls of active or inactive are those of the source.
Measured Property: EC50

Answered examples (5):
Molecule: O=C(c1cc2ccccc2cc1O)N1CCN(c2ccccc2O)CC1
Measured Property: EC50
Val: 0.274 µM (active)
//
Molecule: NC(=S)n1[nH]c(-c2ccc([N+](=O)[O-])cc2)c(/N=N/c2cccc([N+](=O)[O-])c2)c1=O
Measured Property: EC50
Val: 11.6 µM (active)
//
Molecule: COc1cc2c(cc1O)CC[n+]1cc3c(OC)c(OC)ccc3cc1-2 [JATRORRHIZINE]
Measured Property: EC50
Val: 2.91 µM (active)
//
Molecule: CCCCCCCCCCCCCCCC[N+](C)(C)C
Measured Property: EC50
Val: > 38 µM (not active)
//
Molecule: CCC(C)OC(=O)C[N+](C)(C)CCOC1CC2CCC1(C)C2(C)C (centres undefined)
Measured Property: EC50
Val: 4.36 µM (active)

Exercise: Given Cc1ccc(C(=O)Nc2nc3ccccc3c(=O)s2)cc1 , respond with its EC50.
Solution: 10.2 µM (active)

Exercise: Given Cc1ccc(O)c(-c2cc3ccccc3[nH]2)c1 , respond with its EC50.
Solution: > 38 µM (not active)

Exercise: Given OC(CNCCC1C=Nc2ccccc21)Cn1c2ccc(Cl)cc2c2cc(Cl)ccc21 (centres undefined) , respond with its EC50.
Solution: > 38 µM (not active)

Exercise: Given COc1ccc(NC(=O)/C(C#N)=C\c2ccc(N3CCOCC3)o2)cc1 , respond with its EC50.
Solution: 1.68 µM (active)

----------
- Test Description: cytotoxicity toward NIH3T3 fibroblasts, dose response, counter-screen, cell-based, ATP luminescence, mouse fibroblasts (AID 2010);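 note: cells exposed to compound for about 90 hours before reading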
- Type: functional
Activity calls are given as the source filed them.
Measured Property: EC50

Answered examples (3):
Compound: C=CCOC(=O)C(C#N)c1nc2ccccc2nc1N1CCN(Cc2ccc3c(c2)OCO3)CC1 (stereo not given)
EC50: > 60 µM (not active)
//
Compound: CC(NCc1ccncc1)C12CC3CC(CC(C3)C1)C2 (stereo not given)
EC50: > 60 µM (not active)
//
Compound: CC(C)CC(=O)NC(c1cccs1)c1ccc2cccnc2c1O (stereo not given)
EC50: 1.48 µM (active)

Exercise: Given CC1=CC2/C=C(\C)CCC(O)C(O)/C=C/C(=O)C23C(=O)NC(CC(C)C)C3C1C (stereo not given) , respond with its EC50.
Solution: 4.73 µM (active)

Exercise: Given CCCCCc1ccc(OCCC[n+]2ccccc2)c(CCCCC)c1 , respond with its EC50.
Solution: > 60 µM (not active)

src = ChEMBL document CHEMBL1201862
